- Test system: MDA-MB-468
measured-quantity: GI50 (nM)
Field format: number, assumed nM, no unit text.

Solved cases (7 shown):
{"columns": ["mol-smiles", "measured-number"],
 "data": [
  ["Cc1ccc(NC(=O)Cc2ccc(/C=C/C(=O)c3ncc[nH]3)cc2)cc1", 3300],
  ["Cn1ccnc1C(=O)/C=C/c1ccc(CC(=O)Nc2ccc(Cl)cc2)cc1", 1030],
  ["CCn1ccnc1C(=O)/C=C/c1ccc(CC(=O)Nc2ccc(F)cc2)cc1", 1990],
  ["O=C(Cc1ccc(/C=C/C(=O)c2ncc[nH]2)cc1)Nc1ccc(F)cc1", 970],
  ["O=C(Cc1ccc(/C=C/C(=O)c2ncc[nH]2)cc1)Nc1ccc(Cl)cc1", 1680],
  ["O=C(Cc1ccc(/C=C/C(=O)c2ncc[nH]2)cc1)Nc1ccc(C(F)(F)F)cc1", 1770],
  ["Cn1ccnc1C(=O)/C=C/c1ccc(CC(=O)Nc2ccc(F)cc2)cc1", 1720]
]}

MDA-MB-468 / GI50 / Cn1ccnc1C(=O)/C=C/c1ccc(CC(=O)Nc2ccccc2)cc1 : value?
1710
